Target: Dvl-3 PDZ (Homo sapiens, UniProt Q92997)
Construct: spectra of Dvl-3 PDZ in the absence and presence of the compound; His-tag (cleaved yes); made in house
Sequence (Q92997 243-336): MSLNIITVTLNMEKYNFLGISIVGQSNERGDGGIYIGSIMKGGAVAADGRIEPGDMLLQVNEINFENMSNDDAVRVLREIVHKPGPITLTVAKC
Assay: Binding constant by isothermal titration calorimetry (ITC)
Conditions: by ITC; one-site binding model, 25 °C; read-out: K D Dvl-3 PDZ
pKd: −log10 of the molar value.
Entries annotated with measured pKd

Observe how each entry below is paired with its result.
CC(C)[C@H](OC(=O)[C@H](C)NC(=O)[C@@H](OC(=O)[C@H](C)NC(=O)OC(C)(C)C)C(C)C)C(=O)O [NSC668036, reference compound] :: < 3.40
CS(=O)(=O)Nc1ccc(F)cc1C(=O)O :: < 3.00

Kindly review the next compound as well.
Data request: Find the measured pKd of O=C(Cc1ccccc1)Nc1cccc(C(=O)Nc2ccccc2C(=O)O)c1 [CBC-322338/3289-8625, reference compound] and report it.
Data returned: < 3.40
